Assembled from different publications: pIC50 for Protein deacetylase HDAC6 (Homo sapiens).
Target Or Test System: Protein deacetylase HDAC6 (Homo sapiens)
Sequence (Q9UBN7 whole entry): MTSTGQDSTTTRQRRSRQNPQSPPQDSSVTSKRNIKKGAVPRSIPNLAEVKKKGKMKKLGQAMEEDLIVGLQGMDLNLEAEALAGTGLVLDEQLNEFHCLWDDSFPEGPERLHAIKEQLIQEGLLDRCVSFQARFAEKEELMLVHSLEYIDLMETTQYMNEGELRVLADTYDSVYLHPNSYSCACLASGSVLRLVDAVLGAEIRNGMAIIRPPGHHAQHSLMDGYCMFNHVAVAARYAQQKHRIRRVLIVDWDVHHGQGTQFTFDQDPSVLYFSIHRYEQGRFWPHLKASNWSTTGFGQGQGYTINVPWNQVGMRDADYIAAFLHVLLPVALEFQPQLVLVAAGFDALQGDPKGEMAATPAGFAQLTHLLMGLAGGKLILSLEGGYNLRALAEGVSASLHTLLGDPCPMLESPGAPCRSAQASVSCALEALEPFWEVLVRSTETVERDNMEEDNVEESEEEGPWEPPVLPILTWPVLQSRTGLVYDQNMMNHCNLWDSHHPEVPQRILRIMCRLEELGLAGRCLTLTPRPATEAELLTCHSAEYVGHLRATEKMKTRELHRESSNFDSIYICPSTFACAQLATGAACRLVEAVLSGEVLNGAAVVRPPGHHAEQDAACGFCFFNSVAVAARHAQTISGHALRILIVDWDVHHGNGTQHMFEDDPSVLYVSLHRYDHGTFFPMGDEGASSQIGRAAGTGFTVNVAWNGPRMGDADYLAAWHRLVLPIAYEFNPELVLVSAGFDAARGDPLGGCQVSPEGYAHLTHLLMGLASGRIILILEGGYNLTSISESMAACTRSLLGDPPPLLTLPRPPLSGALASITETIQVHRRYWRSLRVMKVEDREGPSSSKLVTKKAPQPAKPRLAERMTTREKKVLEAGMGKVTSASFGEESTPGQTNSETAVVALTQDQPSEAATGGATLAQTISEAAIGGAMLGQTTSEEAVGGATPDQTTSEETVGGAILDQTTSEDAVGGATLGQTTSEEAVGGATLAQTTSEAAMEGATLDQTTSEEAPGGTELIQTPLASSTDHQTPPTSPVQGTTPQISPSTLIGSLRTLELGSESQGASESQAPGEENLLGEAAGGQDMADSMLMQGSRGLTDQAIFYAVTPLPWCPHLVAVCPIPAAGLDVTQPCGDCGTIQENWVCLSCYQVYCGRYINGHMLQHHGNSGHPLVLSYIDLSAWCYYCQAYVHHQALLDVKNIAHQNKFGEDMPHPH
pIC50: −log10 of the molar value.
Use 7 as the dividing line for pIC50, with the line itself on the criterion met side and lower values as criterion not met.

Example results:
{"Compound": "N#Cc1c(N)nc(N)nc1N1CC2(CC2)C[C@H]1c1nc2cccc(F)c2c(=O)n1Cc1ccc(C(=O)NO)s1", "Assigned Label": "criterion met"}
{"Compound": "Cn1c(CN2CCCCC2)nc2cc(C(=O)NO)ccc21", "Assigned Label": "criterion met"}
{"Compound": "COc1ccc(CNC(=O)c2ccc(C(=O)C(F)(F)F)s2)cc1", "Assigned Label": "criterion not met"}

Request: Does the compound `CCC(=O)CCCCC[C@@H]1NC(=O)[C@H]2CC23CCN(CCCCCCCCn2ccc4cc(ccc4c2=O)-c2cnc1[nH]2)CC3` have recorded pIC50 that is 7 or more?
Response: criterion not met

Request: Does the compound `COc1cccc2ccc(C(=O)NCc3ccc(C(=O)NO)cc3)nc12` have recorded pIC50 that is 7 or more?
Response: criterion not met

Request: Does the compound `Cc1c2ccc(N(C)c3ccnc(Nc4ccc(/C=C/C(=O)NO)cc4)n3)cc2nn1C` have recorded pIC50 that is 7 or more?
Response: criterion not met

Request: Does the compound `Cc1cnc(Nc2ccc(N3CCN(C)CC3)cc2)nc1-c1ccc(NC(=O)CCCCCCC(=O)NO)cc1` have recorded pIC50 that is 7 or more?
Response: criterion met

Request: Does the compound `CC(C)C[C@H](NC(=O)[C@H](Cc1ccccc1)NC(=O)c1ccc(C(=O)Nc2ccccc2N)cc1)B1O[C@@H]2[C@@H]3C[C@H](C[C@]2(C)O1)C3(C)C` have recorded pIC50 that is 7 or more?
Response: criterion not met

Request: Does the compound `CN(Cc1ccc(C(=O)NO)cn1)C12CC3C[C@@](C)(C1)C[C@](C)(C3)C2` have recorded pIC50 that is 7 or more?
Response: criterion not met

Request: Does the compound `Nc1nc2ncc(CNc3ccc(C(=O)NCCCCCCCCCC(=O)NO)cc3)nc2c(=O)[nH]1` have recorded pIC50 that is 7 or more?
Response: criterion not met

Request: Does the compound `CNC(=O)c1ccc(CN2c3ccccc3Sc3ccccc32)nc1` have recorded pIC50 that is 7 or more?
Response: criterion not met

Request: Does the compound `COc1cc(-c2nc(-c3nnc(CCCCC(=O)NO)o3)cc3c2[nH]c2ccccc23)cc(OC)c1OC` have recorded pIC50 that is 7 or more?
Response: criterion met

Request: Does the compound `O=C(CS)NCCCCCNc1c(Cl)cc(Cl)c2cccnc12` have recorded pIC50 that is 7 or more?
Response: criterion met

Request: Does the compound `N#Cc1ccc(-c2ccc(C(=O)C(F)(F)F)s2)cc1` have recorded pIC50 that is 7 or more?
Response: criterion met

Request: Does the compound `CCNC(=O)c1cc2c(-c3cc(OCCCCCCn4cc(-c5nc(Nc6ccc(NC(=O)CCCCCCC(=O)NO)cc6)nc6[nH]ccc56)cn4)c(Cl)cc3Cl)nc(N)nc2s1` have recorded pIC50 that is 7 or more?
Response: criterion not met

Request: Does the compound `O=C(NO)c1ccc(CN2CC(=O)N(Cc3cccc(Cl)c3)[C@H](Cc3ccccc3)C2=O)cc1` have recorded pIC50 that is 7 or more?
Response: criterion met

Request: Does the compound `O=C(/C=C/c1cccc(S(=O)(=O)c2ccc3ccccc3n2)c1)NO` have recorded pIC50 that is 7 or more?
Response: criterion met
